System: F1*sub RNA substrate (template-directed ligation)
Assay: fraction ligated after 30 min (ligated reads / total reads); higher = more ligase activity; sequences stand for … in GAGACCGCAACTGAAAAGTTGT…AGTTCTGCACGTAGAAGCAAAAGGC
Settings: 42 °C
Examples of sequences with documented fraction ligated follow.

Please review the following examples before continuing.
{"RESIDUE_CODES": "TATCACTGTCGAAGACACTTTGGATGGGTTG [3d1384]", "fraction ligated": 0.829}
{"RESIDUE_CODES": "ATCCTTGTCGTAAGACACTTTGGATGGGTTG [3d85]", "fraction ligated": 0.716}
{"RESIDUE_CODES": "ATCACTTGTCGAAGACACTTTGGATGGGTTA [3d196]", "fraction ligated": 0.707}
{"RESIDUE_CODES": "TATCACTTGTCGTAAACACTTTGGTGGGTTGA [2d239]", "fraction ligated": 0.0914}
{"RESIDUE_CODES": "TATACTTGTCGTAAGACACTTTGATGGGTTA [3d936]", "fraction ligated": 0.0174}
{"RESIDUE_CODES": "TATCCTTGTCGTAGACACTTTGGTGGGTTGA [3d1050]", "fraction ligated": 0.26}
{"RESIDUE_CODES": "TACACTGTCGTAAGACACTTTGGATGGGTTG [3d584]", "fraction ligated": 0.321}
{"RESIDUE_CODES": "ACATTGTCGTAAGACACTTTGGATGGGTTGA [3d26]", "fraction ligated": 0.0699}

Return reported fraction ligated; argument: TATCACTTGTCGTAAGCACTTTGGTGGTTGA [3d2142]
0.118

What does the data say about its fraction ligated? Entry: TATCATTGTCGTAAGACCTTTGGAGGGTTGA [3d1258]
0.104

Please report the recorded fraction ligated for TACACTTGTCGTAAGACACTTTGGTGGGTTG [3d730] .
0.035

GET /values?readout=fraction ligated&item= TACCTTGTCGTAAGACACTTTGGATGGGTTA [3d545]
0.548

Could you tell me which fraction ligated is on file for TATCACTTGTCGTAAGACACTTTGGAGGTTG [3d2278] ?
0.00797

What does the record list as fraction ligated for TATCCTTGTCGTAAACCTTTGGATGGGTTGA [3d1056] ?
0.766

Give the measured fraction ligated of TATCCTTGTGTAAACACTTTGGATGGGTTGA [3d1003] .
0.8

Record request: fraction ligated value, item TATCCTTGTCGTAGACACTTTGGATGGGTTG [3d1054]
0.786

Where these numbers come from: the supplement of paper PMC6755084
